Measured Ki by item
- target.desc: StCA2 (Salmonella enterica, UniProt O30898)
- Construct: gene mig-5; recombinant, obtained in-house; beta-class CA
- Sequence (O30898 41-246): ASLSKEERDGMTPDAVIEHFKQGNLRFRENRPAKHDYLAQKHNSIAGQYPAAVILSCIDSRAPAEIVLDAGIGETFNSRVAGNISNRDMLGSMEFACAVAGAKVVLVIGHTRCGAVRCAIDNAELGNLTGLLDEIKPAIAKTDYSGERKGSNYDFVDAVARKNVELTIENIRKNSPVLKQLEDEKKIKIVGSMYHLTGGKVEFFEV
- experiment.notes: stopped-flow CO2 hydration
- Type: biochemical
- assay.setup: 20 mM TRIS pH 8.4, 20 mM Na2SO4, CO2 1.7-17 mM; 6 h preincubation at room temperature
- Excerpt: stopped-flow CO2 hydration on StCA2
Give the value, in units of nM, as a plain number.

compound_smiles=CSC(N)=Nc1ccc(S(N)(=O)=O)cc1 target_desc="StCA2 (Salmonella enterica, UniProt O30898)" value_observed=270
compound_smiles=CCCCSC(N)=Nc1ccc(S(N)(=O)=O)cc1 target_desc="StCA2 (Salmonella enterica, UniProt O30898)" value_observed=348

# context switch: different molecule, same Ki
Problem: Any idea what Ki came out for "NC(=Nc1ccc(S(N)(=O)=O)cc1)SCc1ccccc1" on StCA2 (Salmonella enterica, UniProt O30898)?
Result: 902
